Reported Activity of mutant relative to wild-type Gaussia luciferase without the signal peptide values are given for each entry in this list.
- ASSAY_OVERVIEW: Luminescence activity assay of purified Gaussia luciferase mutants on coelenterazine derivative ZS2
- Format: biochemical
- Set-up: key: ratio of mutant luminescence intensity to wild-type Gaussia luciferase
- CONDITION_LABEL: Substrate ZS2 (Table 16)
READOUT_TYPE: Activity of mutant relative to wild-type Gaussia luciferase without the signal peptide

# MOLECULE, NUMERIC_VALUE
rows = [
    ("F26I N27D V29D A30G A32E S33G A36T L40S del117-119 D139H: Gaussia luciferase mutant (protein, SIGNAL (1)..(17), Gaussia luciferase mutant) MGVKVLFALICIAVAEAKPTENNEDIDIDGVEGNFTTTDSDADRGKLPGKKLPLEVLKEMEANARKAGCTRGCLICLSHIKCTPKMKKFIPGRCHTYEGDKESAQGGIGEAIVDIPGFKDLEPMEQFIAQVDLCVHCTTGCLKGLANVQCSDLLKKWLPQRCATFASKIQGQVDKIKGAGGD", 0.010),
    ("V29A A30D V31I A32V S33N L40A: Gaussia luciferase mutant (protein, SIGNAL (1)..(17), Gaussia luciferase mutant) MGVKVLFALICIAVAEAKPTENNEDFNIADIVNNFATTDADADRGKLPGKKLPLEVLKEMEANARKAGCTRGCLICLSHIKCTPKMKKFIPGRCHTYEGDKESAQGGIGEAIVDIPEIPGFKDLEPMEQFIAQVDLCVDCTTGCLKGLANVQCSDLLKKWLPQRCATFASKIQGQVDKIKGAGGD", 1.164),
]
